# System: human colon adenocarcinoma, MDR positive (HCT-15) cells
# experimentSummary: 48-hour cellular proliferation assay (sulforhodamine staining, 96-well microtitre format)
# Format: cell-based
# conditionDescription: Homo sapiens, HCT-15, 10^-4M compound, 48 hours in culture, 0% = DMSO control, 100% = trichloroacetic acid-treated well
For each of the compounds below, state its inhibition at 100 µM.
Dear colleague, please return just the value in %, with no unit written.

Recorded result, `COc1cc(NS(=O)(=O)c2ccc3c(c2)CCN3)cc(OC)c1OC` , inhibition at 100 µM: 86.2

Please fill in: inhibition at 100 µM reported for `COc1cc(NS(=O)(=O)c2c[nH]c3ccc(N)cc23)cc(OC)c1OC` = 37

`COc1cc(NS(=O)(=O)c2cn(C)c3ccc(N)cc23)cc(OC)c1OC` yielded inhibition at 100 µM of 91.9

Entry under test: `COc1cc(NS(=O)(=O)c2ccc3c(ccn3C)c2)cc(OC)c1OC` . Its inhibition at 100 µM was 100

Looking up `COc1cc(NS(=O)(=O)c2cn(C)c3ccc([N+](=O)[O-])cc23)cc(OC)c1OC` , I see its inhibition at 100 µM listed as 50.6

Item: `COc1cc(NS(=O)(=O)c2ccc3c(c2)CCN3C=O)cc(OC)c1OC` | inhibition at 100 µM: 79.9

In plain terms, `COc1cc(NS(=O)(=O)c2ccc3[nH]ccc3c2)cc(OC)c1OC` has a documented inhibition at 100 µM of 94.1

// inhibition at 100 µM value for `COc1cc(NS(=O)(=O)c2ccc3c(c2)CCN3C)cc(OC)c1OC` : 97.6

Field inhibition at 100 µM (entry `COc1ccc(S(=O)(=O)Nc2cc(OC)c(OC)c(OC)c2)cc1` ) reads 99.4

Summary for this compound, `COc1cc(N(C)S(=O)(=O)c2ccc3c(ccn3C)c2)cc(OC)c1OC` : inhibition at 100 µM is 100

response.value for `COc1cc(NS(=O)(=O)c2c[nH]c3ccc([N+](=O)[O-])cc23)cc(OC)c1OC` (field: inhibition at 100 µM) = 15.9

Documented inhibition at 100 µM of `COc1cc(S(=O)(=O)Oc2ccc3c(ccn3C)c2)cc(OC)c1OC` : 100
